Biological target: heteromeric KV7.2/KV7.3 channels (KCNQ2, KCNQ3) (Homo sapiens, UniProt O43525+O43526)
Construct: expressed in transfected cells; host or cells: CHO-K1
Experiment: Automated patch-clamp (Sophion Qube 384) potency assay against KV7.2/KV7.3 channels
Format: cell-based
Settings: CHO-K1/Kv7.2/Kv7.3 cells; maximal shift in the Vhalf from the top of the curve
Endpoint Label: Kv7.2/7.3 ΔV1/2 (mV)

[[record]]
compound = "O=C(NCc1ccc(OC(F)(F)F)cc1)NCc1ccnc(OCC(F)(F)F)c1"
endpoint_label = "Kv7.2/7.3 ΔV1/2"
quantitative_readout = 22.62

[[record]]
compound = "CC(C)(OCCNC(=O)NCc1ccnc(OCC(F)(F)F)c1)C(F)(F)F"
endpoint_label = "Kv7.2/7.3 ΔV1/2"
quantitative_readout = 22.74

[[record]]
compound = "O=C(NCc1ccnc(OCC(F)(F)F)c1)N[C@@H]1CCc2cc(Cl)ccc21"
endpoint_label = "Kv7.2/7.3 ΔV1/2"
quantitative_readout = 30.45

[[record]]
compound = "Cc1ccccc1CNC(=O)NCc1ccnc(OCC(F)(F)F)c1"
endpoint_label = "Kv7.2/7.3 ΔV1/2"
quantitative_readout = 19.56

[[record]]
compound = "O=C(NCc1ccnc(OCC(F)(F)F)c1)N[C@H]1CCCC[C@@H]1O"
endpoint_label = "Kv7.2/7.3 ΔV1/2"
quantitative_readout = 33.01

[[record]]
compound = "O=C(NCc1ccnc(OCC(F)(F)F)c1)N[C@H](C1CC1)C(F)(F)F"
endpoint_label = "Kv7.2/7.3 ΔV1/2"
quantitative_readout = 31.5

[[record]]
compound = "O=C(NCCC1(C(F)(F)F)CC1)N1CCCC1c1ccnc(OCC(F)(F)F)c1 (centres unmarked)"
endpoint_label = "Kv7.2/7.3 ΔV1/2"
quantitative_readout = 21.55

[[record]]
compound = "O=C(NCc1ccnc(OCC(F)(F)F)c1)N[C@H]1COC[C@H]1c1ccc(F)cc1"
endpoint_label = "Kv7.2/7.3 ΔV1/2"
quantitative_readout = 29.83

[[record]]
compound = "C[C@@H](Oc1cc(CNC(=O)N[C@@H]2CCOc3cc(F)ccc32)ncn1)C(F)(F)F"
endpoint_label = "Kv7.2/7.3 ΔV1/2"
quantitative_readout = 42.13

[[record]]
compound = "C[C@@H](Oc1cc(CNC(=O)NCC23CC(F)(C2)C3)ncn1)C(F)(F)F"
endpoint_label = "Kv7.2/7.3 ΔV1/2"
quantitative_readout = 26.21

[[record]]
compound = "O=C(NCc1ccnc(OCC(F)(F)F)c1)NCc1cc(F)ccc1Cl"
endpoint_label = "Kv7.2/7.3 ΔV1/2"
quantitative_readout = 20.49

[[record]]
compound = "O=C(NCCC1(C(F)(F)F)CC1)NCc1ccnc(OCc2ccc(F)cc2F)c1"
endpoint_label = "Kv7.2/7.3 ΔV1/2"
quantitative_readout = 25.77

[[record]]
compound = "COc1ccc2c(c1)CCC[C@H]2NC(=O)NCc1ccnc(OCC(F)(F)F)c1"
endpoint_label = "Kv7.2/7.3 ΔV1/2"
quantitative_readout = 54.8

[[record]]
compound = "O=C(NCc1cccc(F)c1)NCc1ccnc(OCc2ccccc2)c1"
endpoint_label = "Kv7.2/7.3 ΔV1/2"
quantitative_readout = 16.51

[[record]]
compound = "CO[C@@H]1CCOc2c(NC(=O)NCc3ccnc(OCC(F)(F)F)c3)cccc21"
endpoint_label = "Kv7.2/7.3 ΔV1/2"
quantitative_readout = 20.92

[[record]]
compound = "O=C(NCc1ccnc(OCC(F)(F)F)c1)NCC12CC(F)(CO1)C2"
endpoint_label = "Kv7.2/7.3 ΔV1/2"
quantitative_readout = 20.11

[[record]]
compound = "COc1ccc2c(c1)[C@H](NC(=O)NCc1ccnc(OCC(F)(F)F)c1)CC2"
endpoint_label = "Kv7.2/7.3 ΔV1/2"
quantitative_readout = 43.25

[[record]]
compound = "O=C(NCc1ccnc(OCC(F)(F)F)c1)NCC1(C(F)(F)F)CC1"
endpoint_label = "Kv7.2/7.3 ΔV1/2"
quantitative_readout = 38.22

[[record]]
compound = "O=C(NCc1ccnc(OCC(F)(F)F)c1)N[C@@H]1CCCOc2ccccc21"
endpoint_label = "Kv7.2/7.3 ΔV1/2"
quantitative_readout = 30.15

[[record]]
compound = "O=C(NCc1ccnc(OCC(F)(F)F)c1)N[C@H]1c2ccccc2C[C@H]1O"
endpoint_label = "Kv7.2/7.3 ΔV1/2"
quantitative_readout = 30.26

[[record]]
compound = "N#Cc1cccc2c1CC[C@H]2NC(=O)NCc1ccnc(OCC(F)(F)F)c1"
endpoint_label = "Kv7.2/7.3 ΔV1/2"
quantitative_readout = 31.18

[[record]]
compound = "O=C(NCc1ccnc(OCC(F)(F)F)c1)N[C@H]1CCO[C@@H]1c1ccccc1"
endpoint_label = "Kv7.2/7.3 ΔV1/2"
quantitative_readout = 39.86

[[record]]
compound = "O=C(NCCC1(C(F)(F)F)CC1)NCc1ccnc(OCC2(F)COC2)c1"
endpoint_label = "Kv7.2/7.3 ΔV1/2"
quantitative_readout = 17.14

[[record]]
compound = "N#Cc1cccc2c1CC[C@@H]2NC(=O)NCc1ccnc(OCC(F)(F)F)c1"
endpoint_label = "Kv7.2/7.3 ΔV1/2"
quantitative_readout = 25.41

[[record]]
compound = "CC1(C)C[C@H](NC(=O)NCc2ccnc(OCC(F)(F)F)c2)c2ccccc2O1"
endpoint_label = "Kv7.2/7.3 ΔV1/2"
quantitative_readout = 25.04

[[record]]
compound = "CC(F)(F)COc1cc(CNC(=O)NCCC2(C(F)(F)F)CC2)ccn1"
endpoint_label = "Kv7.2/7.3 ΔV1/2"
quantitative_readout = 29.4

[[record]]
compound = "O=C(NCc1ccnc(OCC(F)(F)F)c1)NCC1CCC(F)(F)C1 (centres unmarked)"
endpoint_label = "Kv7.2/7.3 ΔV1/2"
quantitative_readout = 30.26

[[record]]
compound = "O=C(NCCC1(C(F)(F)F)CC1)NCc1cc(OCC(F)(F)F)ncn1"
endpoint_label = "Kv7.2/7.3 ΔV1/2"
quantitative_readout = 28.31

[[record]]
compound = "O=C(NCc1ccnc(OCC(F)(F)F)c1)N[C@@H]1CC[C@H](c2ccccc2)C1"
endpoint_label = "Kv7.2/7.3 ΔV1/2"
quantitative_readout = 56.75

[[record]]
compound = "COc1ccc2c(c1)OC[C@H]2NC(=O)NCc1ccnc(OCC(F)(F)F)c1"
endpoint_label = "Kv7.2/7.3 ΔV1/2"
quantitative_readout = 52.09

[[record]]
compound = "CC1Cc2cccc(NC(=O)NCc3ccnc(OCC(F)(F)F)c3)c2O1 (centres unmarked)"
endpoint_label = "Kv7.2/7.3 ΔV1/2"
quantitative_readout = 16.11

[[record]]
compound = "O=C(NCc1ccnc(OCC(F)(F)F)c1)NC1CCCCC1"
endpoint_label = "Kv7.2/7.3 ΔV1/2"
quantitative_readout = 53.72

[[record]]
compound = "Cc1cccc2c1[C@@H](NC(=O)NCc1ccnc(OCC(F)(F)F)c1)CC2"
endpoint_label = "Kv7.2/7.3 ΔV1/2"
quantitative_readout = 24.08

[[record]]
compound = "C#CCOc1cc(CNC(=O)NCC2CCC(F)(F)CC2)ccn1"
endpoint_label = "Kv7.2/7.3 ΔV1/2"
quantitative_readout = 26.66

[[record]]
compound = "O=C(NCc1ccnc(OCC(F)(F)F)c1)N[C@@H]1COC[C@H]1c1ccc(F)cc1"
endpoint_label = "Kv7.2/7.3 ΔV1/2"
quantitative_readout = 76.14


* * *

Consider the following compounds and their measured Kv7.2/7.3 ΔV1/2 readings.
Biological target: heteromeric KV7.2/KV7.3 channels (KCNQ2, KCNQ3) (Homo sapiens, UniProt O43525+O43526)
Construct: expressed in transfected cells; host or cells: CHO-K1
Test: Automated patch-clamp (Sophion Qube 384) potency assay against KV7.2/KV7.3 channels
Assay type: cell-based
Settings: CHO-K1/Kv7.2/Kv7.3 cells; maximal shift in the Vhalf from the top of the curve
Endpoint Label: Kv7.2/7.3 ΔV1/2 (mV)

[[record]]
compound = "O=C(NCCC1(C(F)(F)F)CC1)NCc1ccnc(OCc2ncccc2F)c1 [Compound 54]"
endpoint_label = "Kv7.2/7.3 ΔV1/2"
units_of_measure = "mV"
quantitative_readout = 22.67

[[record]]
compound = "C[C@@H](Oc1cc(CNC(=O)N[C@H](C2CC2)C(F)(F)F)ncn1)C(F)(F)F [Compound 224]"
endpoint_label = "Kv7.2/7.3 ΔV1/2"
units_of_measure = "mV"
quantitative_readout = 37.09

[[record]]
compound = "C[C@H](Oc1cc(CNC(=O)NCCC2(C(F)(F)F)CC2)ccn1)C(F)(F)F [Compound 47]"
endpoint_label = "Kv7.2/7.3 ΔV1/2"
units_of_measure = "mV"
quantitative_readout = 26.23

[[record]]
compound = "O=C(NCc1ccnc(OCC(F)(F)F)c1)N[C@@H]1CCO[C@H]1c1ccc(F)cc1 [Compound 242]"
endpoint_label = "Kv7.2/7.3 ΔV1/2"
units_of_measure = "mV"
quantitative_readout = 34.51

[[record]]
compound = "O=C(NCCC1(C(F)(F)F)CC1)NCc1ccnc(OCCF)c1 [Compound 17]"
endpoint_label = "Kv7.2/7.3 ΔV1/2"
units_of_measure = "mV"
quantitative_readout = 28.27

[[record]]
compound = "O=C(NCc1ccnc(OCC(F)(F)F)c1)N[C@@H]1CN(CC(F)(F)F)C[C@H]1c1ccccc1 [Compound 232]"
endpoint_label = "Kv7.2/7.3 ΔV1/2"
units_of_measure = "mV"
quantitative_readout = 23.95

[[record]]
compound = "O=C(NCc1ccnc(OCC(F)(F)F)c1)N[C@H]1CSc2ccccc2C1 [Compound 173]"
endpoint_label = "Kv7.2/7.3 ΔV1/2"
units_of_measure = "mV"
quantitative_readout = 31.15

[[record]]
compound = "O=C(NCc1ccnc(OCC(F)(F)F)c1)NCc1ccnc(OCC(F)(F)F)c1 [Compound 248]"
endpoint_label = "Kv7.2/7.3 ΔV1/2"
units_of_measure = "mV"
quantitative_readout = 23.91

[[record]]
compound = "O=C(NCc1ccnc(OCC(F)(F)F)c1)NCC12CC(F)(C1)C2 [Compound 219]"
endpoint_label = "Kv7.2/7.3 ΔV1/2"
units_of_measure = "mV"
quantitative_readout = 35.95

[[record]]
compound = "O=C(NCc1ccnc(OCC(F)(F)F)c1)N[C@H]1CCSc2ccccc21 [Compound 175]"
endpoint_label = "Kv7.2/7.3 ΔV1/2"
units_of_measure = "mV"
quantitative_readout = 20.52

[[record]]
compound = "O=C(NCc1ccnc(OCC(F)(F)F)c1)N[C@H]1CCCOc2ccccc21 [Compound 142]"
endpoint_label = "Kv7.2/7.3 ΔV1/2"
units_of_measure = "mV"
quantitative_readout = 16.4

[[record]]
compound = "O=C(NCc1ccnc(OC(F)F)c1)N[C@@H]1CCc2ccc(F)cc21 [Compound 153]"
endpoint_label = "Kv7.2/7.3 ΔV1/2"
units_of_measure = "mV"
quantitative_readout = 47.43

[[record]]
compound = "CC1(NC(=O)NCc2ccnc(OCC(F)(F)F)c2)Cc2ccccc2C1 [Compound 114]"
endpoint_label = "Kv7.2/7.3 ΔV1/2"
units_of_measure = "mV"
quantitative_readout = 32.56

[[record]]
compound = "CC1(C)C[C@@H](NC(=O)NCc2ccnc(OCC(F)(F)F)c2)c2ccccc21 [Compound 192]"
endpoint_label = "Kv7.2/7.3 ΔV1/2"
units_of_measure = "mV"
quantitative_readout = 47.09

[[record]]
compound = "CN(CC(F)(F)F)c1cc(CNC(=O)NCCC2(C(F)(F)F)CC2)ccn1 [Compound 68]"
endpoint_label = "Kv7.2/7.3 ΔV1/2"
units_of_measure = "mV"
quantitative_readout = 27.19

[[record]]
compound = "O=C(NCc1ccnc(OCC(F)(F)F)c1)N[C@@H]1CCOc2ccccc21 [Compound 130]"
endpoint_label = "Kv7.2/7.3 ΔV1/2"
units_of_measure = "mV"
quantitative_readout = 40.52

[[record]]
compound = "C[C@@H](NC(=O)NCc1ccnc(OCC(F)(F)F)c1)c1ccc(OC(F)(F)F)cc1 [Compound 238]"
endpoint_label = "Kv7.2/7.3 ΔV1/2"
units_of_measure = "mV"
quantitative_readout = 24.31

